- EXPERIMENT NOTES: NCI Yeast Anticancer Drug Screen. Data for the bub3 strain (AID 167)
- PARTICULARS: S. cerevisiae bub3 mutant strain, at 50.0 µM
The panel holds about 79,000 compounds, 15% with a hit somewhere; the sample as a whole holds those more often. Calls of active or inactive are those of the source. Rule as the data show it: active = growth inhibition above about 70%; inactive = the rest.
The reply should name one outcome from active, inactive

Inquiry: Which outcome did this test record for the compound CCNc1nc2ccccc2nc1NCC ?
Reply text: inactive

Inquiry: Which outcome did this test record for the compound OCC1(OC2OC(CF)C(O)C(O)C2O)OC(CF)C(O)C1O (stereo not given) ?
Reply text: inactive

Inquiry: Which outcome did this test record for the compound CCC1CCC(=O)NC1=O (stereo not given) ?
Reply text: inactive

Inquiry: Which outcome did this test record for the compound CSc1nc(N)c(NS(=O)(=O)c2ccccc2)c(=O)[nH]1 ?
Reply text: inactive

---
Inquiry: Which outcome did this test record for the compound O=C(/C=C\c1ccc(Cl)cc1)OCCCCOC(=O)/C=C/c1ccc(Cl)cc1 ?
Reply text: inactive

Inquiry: Which outcome did this test record for the compound CC(=O)[CH-]C(=O)c1ccccc1.CC(=O)[CH-]C(=O)c1ccccc1.CCCCCCCCCCCCCCCCCC(=O)[O-].CCCCCCCCCCCCCCCCCC(=O)[O-].[Ti+4] ?
Reply text: inactive

Inquiry: Which outcome did this test record for the compound Cc1cc(=O)[nH]n1-c1ccc([N+](=O)[O-])cc1 ?
Reply text: inactive

Inquiry: Which outcome did this test record for the compound S=c1sc2ccccc2n1CN1CCCC1 ?
Reply text: inactive

Inquiry: Which outcome did this test record for the compound CC[N+](C)(CC)CCOc1nc2c(c(=O)n(C)c(=O)n2C)n1C ?
Reply text: inactive

Inquiry: Which outcome did this test record for the compound CCOC1NC(=O)c2ccccc21 (stereo not given) ?
Reply text: inactive

Inquiry: Which outcome did this test record for the compound CCC1(CCC(C)C)C(=O)NC(=Nc2ccccc2)N(c2ccccc2)C1=O (stereo not given) ?
Reply text: inactive

Inquiry: Which outcome did this test record for the compound CCC(=O)C(C)C(=O)C(=O)NCCNC(=O)C(=O)C(C)C(=O)CC (stereo not given) ?
Reply text: inactive

Inquiry: Which outcome did this test record for the compound NC(=O)c1csc(C2OC3COP(=O)(O)OC3C2O)n1 (stereo not given) ?
Reply text: inactive

Inquiry: Which outcome did this test record for the compound CC/C(C)=N/NS(=O)(=O)c1ccc(C)cc1 ?
Reply text: inactive

Inquiry: Which outcome did this test record for the compound FC(F)(F)c1cccc(NC(=S)N2CCOCC2)c1 ?
Reply text: inactive

Inquiry: Which outcome did this test record for the compound Cc1cc[n+]2c(c1)-c1cc(C)cc[n+]1CC2 ?
Reply text: inactive

Inquiry: Which outcome did this test record for the compound CCOC(=O)c1ccc(NCC2CNc3ccccc3N2)cc1 (stereo not given) ?
Reply text: inactive
